# reported MGM (μM), cytotoxicity mean-graph midpoint; entries follow
System: NCI panel of 60 human cancer cell lines
Assay: Cytotoxicity mean-graph midpoint in NCI panel of 60 cancer cell lines
Assay type: cell-based
Details: Table 1; average of two determinations; approximate average of GI50 across the panel
# value in µM; strip the unit string

COMPOUND	RECORDED RESULT
Cl.NCCCn1c2c(c3ccc([N+](=O)[O-])cc3c1=O)C(=O)c1cc3c(cc1-2)OCO3 [Compound 16]	0.090
Br.COc1cc2c(cc1O)C(=O)c1c-2n(CCCN2CCOCC2)c(=O)c2cc([N+](=O)[O-])ccc12 [Compound 13]	0.021
COc1ccc2c(c1)C(=O)c1c-2n(CCCNCCO)c(=O)c2cc([N+](=O)[O-])ccc12 [Compound 15]	0.016

Param readout = MGM (μM), cytotoxicity mean-graph midpoint; param system = NCI panel of 60 human cancer cell lines; param query = Br.COc1cc2c(cc1O)C(=O)c1c-2n(CCCN)c(=O)c2cc([N+](=O)[O-])ccc12 [Compound 12] ; response: value
0.019

Item: Br.COc1cc2c(cc1O)C(=O)c1c-2n(CCCn2ccnc2)c(=O)c2cc([N+](=O)[O-])ccc12 [Compound 14] Test system: NCI panel of 60 human cancer cell lines Read-out: MGM (μM), cytotoxicity mean-graph midpoint Value: ?
0.019

For the record COc1ccc2c(c1)C(=O)c1c-2n(CCCN)c(=O)c2cc([N+](=O)[O-])ccc12 [Compound 6] , what value of MGM (μM), cytotoxicity mean-graph midpoint is listed for NCI panel of 60 human cancer cell lines?
0.047

Values were extracted from patent US20160367685A1.
